Reported values of log10 of IC50 for individual entries
biological target: mouse 11β-HSD1 (Mus musculus, UniProt P50172); construct: 100 ug/ml human/mouse liver microsomes; from tissue; host or cells: mouse liver microsomes; assay: Enzyme activity analysis on mouse 11β-HSD1 (HTRF cortisol, liver microsomes); type: biochemical; details: second value of cell
Sequence (P50172 whole entry): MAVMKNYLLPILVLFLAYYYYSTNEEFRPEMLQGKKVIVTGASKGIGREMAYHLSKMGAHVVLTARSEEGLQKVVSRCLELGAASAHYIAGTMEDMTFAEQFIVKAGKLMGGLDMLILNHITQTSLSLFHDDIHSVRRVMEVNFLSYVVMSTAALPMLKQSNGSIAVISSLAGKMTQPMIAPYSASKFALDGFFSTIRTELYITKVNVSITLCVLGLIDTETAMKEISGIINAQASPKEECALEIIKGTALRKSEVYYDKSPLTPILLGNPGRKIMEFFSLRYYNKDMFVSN
Annotation: log10 of IC50, µM basis.

Known log10 of IC50 results, listed for orientation:
Cc1cccc(S(=O)(=O)NC(C)(C)C(=O)NC2C3CC4CC(C3)CC2C4)c1 (stereo not drawn) [compound 28] :: -0.36
CC(C)(NS(=O)(=O)c1ccccc1F)C(=O)NC1C2CC3CC(C2)CC1C3 (stereo not drawn) [compound 16] :: -0.59
CC(C)(NS(=O)(=O)c1cccc2cccnc12)C(=O)NC1C2CC3CC1CC(O)(C3)C2 (stereo not drawn) [compound 75] :: -2.30
Cc1ccc([N+](=O)[O-])cc1S(=O)(=O)NC(C)(C)C(=O)NC1C2CC3CC(C2)CC1C3 (stereo not drawn) [compound 40] :: 0.27
CC(C)(NS(=O)(=O)c1ccc(Cl)cc1)C(=O)NC1C2CC3CC(C2)CC1C3 (stereo not drawn) [compound 5] :: 0.02

Query :: Give the reported value of log10 of IC50 for this record: CN(C(C)(C)C(=O)NC1C2CC3CC1CC(O)(C3)C2)S(=O)(=O)c1ccccc1F (stereo not drawn) [compound 202]
Result :: -0.68

Query :: Give the reported value of log10 of IC50 for this record: CC(C)(NS(=O)(=O)c1ccc(C(=O)NC2C3CC4CC(C3)CC2C4)cc1Cl)C(=O)NC1C2CC3CC(C2)CC1C3 (stereo not drawn) [compound 44]
Result :: -0.78

---

target: human 11β-HSD1 (Homo sapiens, UniProt P28845); construct: 100 ug/ml human/mouse liver microsomes; from tissue; host or cells: human liver microsomes; assay: Enzyme activity analysis on human 11β-HSD1 (HTRF cortisol, liver microsomes); format: biochemical; conditions: first value of cell
Sequence (P28845 whole entry): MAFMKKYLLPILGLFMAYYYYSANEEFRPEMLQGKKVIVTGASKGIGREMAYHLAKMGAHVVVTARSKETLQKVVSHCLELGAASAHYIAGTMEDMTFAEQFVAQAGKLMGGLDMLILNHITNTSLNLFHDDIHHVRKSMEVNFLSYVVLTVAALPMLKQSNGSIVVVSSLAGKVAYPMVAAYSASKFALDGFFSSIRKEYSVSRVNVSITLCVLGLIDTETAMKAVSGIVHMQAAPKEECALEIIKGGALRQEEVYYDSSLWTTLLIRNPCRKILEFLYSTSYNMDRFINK
Reported values of IC50 for individual entries
Response body: numeric value in µM, unit text excluded.

CC(C)(NS(=O)(=O)c1cccc(Br)c1)C(=O)NC1C2CC3CC(C2)CC1C3 (centres unmarked) :: 0.433

Query :: Give the reported value of IC50 for this record: Cc1ccccc1S(=O)(=O)N(C)C(C)(C)C(=O)NC1C2CC3CC1CC(C(N)=O)(C3)C2 (centres unmarked)
Result :: 0.003

Query :: Give the reported value of IC50 for this record: CC(C)(NS(=O)(=O)c1c(Cl)cccc1Cl)C(=O)NC1C2CC3CC1CC(C(N)=O)(C3)C2 (centres unmarked)
Result :: 0.009

Query :: Give the reported value of IC50 for this record: CC(C)(NS(=O)(=O)c1cccc2cccnc12)C(=O)NC1C2CC3CC1CC(C(N)=O)(C3)C2 (centres unmarked)
Result :: 0.023

Query :: Give the reported value of IC50 for this record: Cc1ccc(F)c(S(=O)(=O)NC2(C(=O)NC3C4CC5CC3CC(C(N)=O)(C5)C4)CCC2)c1 (centres unmarked)
Result :: 0.058

---

molecular target: human 11β-HSD1 (Homo sapiens); construct: 100 ug/ml human/mouse liver microsomes; from tissue; host or cells: human liver microsomes; test: Enzyme activity analysis on human 11β-HSD1 (HTRF cortisol, liver microsomes); type: biochemical; settings: first value of cell
Reported values of log10 IC50 for individual entries
Annotation: log10 of IC50, µM basis.

Cc1c(Cl)cccc1S(=O)(=O)NC(C)(C)C(=O)NC1C2CC3CC(C2)CC1C3 (stereo not drawn) :: -1.10

Query :: Give the reported value of log10 IC50 for this record: CC(C)(NS(=O)(=O)c1cccc(Cl)c1Cl)C(=O)NC1C2CC3CC1CC(C(N)=O)(C3)C2 (stereo not drawn)
Result :: -2.30

Query :: Give the reported value of log10 IC50 for this record: CN(C(C)(C)C(=O)NC1C2CC3CC1CC(O)(C3)C2)S(=O)(=O)c1ccccc1Br (stereo not drawn)
Result :: -2.30

Query :: Give the reported value of log10 IC50 for this record: CC(C)(NS(=O)(=O)c1ccc([N+](=O)[O-])cc1)C(=O)NC1C2CC3CC1CC(O)(C3)C2 (stereo not drawn)
Result :: -0.16

Query :: Give the reported value of log10 IC50 for this record: CC(C)(NS(=O)(=O)c1c(Cl)cc(Cl)cc1Cl)C(=O)NC1C2CC3CC1CC(C(N)=O)(C3)C2 (stereo not drawn)
Result :: -1.62

Query :: Give the reported value of log10 IC50 for this record: Cc1ccccc1S(=O)(=O)NC(C)(C)C(=O)NC1C2CC3CC(C2)CC1C3 (stereo not drawn)
Result :: -1.44

Query :: Give the reported value of log10 IC50 for this record: NC(=O)C12CC3CC(C1)C(NC(=O)C1(NS(=O)(=O)c4ccccc4Br)CCCC1)C(C3)C2 (stereo not drawn)
Result :: -1.77

Query :: Give the reported value of log10 IC50 for this record: NC(=O)C12CC3CC(C1)C(NC(=O)C1(NS(=O)(=O)c4ccccc4F)CCCCC1)C(C3)C2 (stereo not drawn)
Result :: -1.55

Query :: Give the reported value of log10 IC50 for this record: NC(=O)C12CC3CC(C1)C(NC(=O)C1(NS(=O)(=O)c4ccccc4Cl)CC1)C(C3)C2 (stereo not drawn)
Result :: -1.43

Query :: Give the reported value of log10 IC50 for this record: CC(C)(NS(=O)(=O)c1ccc(Cl)c(Cl)c1)C(=O)NC1C2CC3CC(C2)CC1C3 (stereo not drawn)
Result :: -0.46

Taken from patent US9073830B2.
